// values below are reported growth
# Test system: NCI-H460 lung
# Assay Notes: NCI-60 one-dose screen, 48 h (100 = growth as untreated, 0 = no growth, -100 = all killed)
# Run Conditions: 10 µM unless noted
About 83,000 compounds went through this panel and 20% of them were active in at least one assay; those are over-represented in the sample as a whole.

- Compound: "CN1COc2ccc3ccccc3c2C1"
  growth (%): 107
- Compound: "C=CC1=C(C(=O)O)N2C(=O)[C@@H](NC(=O)/C(=N\\O)c3csc(N)n3)[C@H]2SC1 (stereo in doubt)"
  growth (%): 105
- Compound: "O=C1NCC(Nc2ccc(Br)cc2Cl)C(=O)N1 (configuration not stated)"
  growth (%): 112
- Compound: "CC(=O)NCCSC(=O)C(=O)SCCNC(C)=O"
  growth (%): 114
- Compound: "Nc1ccc(C2=Nc3cccc4cccc(c34)S2)cc1"
  growth (%): 89.5
- Compound: "O=[N+]([O-])c1ccc(N/N=C/c2c(O)ccc3ccccc23)nc1"
  growth (%): 24.2
- Compound: "CC/C=C\\C=C/C(=O)N/C=C/CC1Cc2cccc(O)c2C(=O)O1 (configuration not stated)"
  growth (%): 130
- Compound: "CCC[C@H](N[C@@H](C)C(=O)N1[C@H](C(=O)O)C[C@@H]2CCCC[C@@H]21)C(=O)OCC"
  growth (%): 116
- Compound: "COc1ccc2c(c1)nc(N)c1c3cc(C)c(C)cc3cn21"
  growth (%): 48.4
- Compound: "COc1ccc2[nH]cc(/C=C3/C(=O)Nc4ccc(F)cc43)c2c1"
  growth (%): 83.3
- Compound: "Cc1cc([N+](=O)[O-])c(C)cc1C(=O)O"
  growth (%): 111
- Compound: "O=C(/C(=C/c1cccc([N+](=O)[O-])c1)c1ccccc1)c1ccccc1"
  growth (%): 67.9
- Compound: "CC(=O)c1cc(C(=O)c2ccc3c(c2)Sc2ccccc2N3)c2c(C)cc(C)cn12"
  growth (%): 0.69
- Compound: "COc1ccc(/C=N\\Nc2ccc([N+](=O)[O-])cn2)cc1OC"
  growth (%): 1.43
- Compound: "COc1ccc(OC)c(/C=C/c2nc(=S)n(-c3ccc(Cl)cc3)[nH]2)c1"
  growth (%): 38.9
- Compound: "COc1cc(/C=C2\\COc3ccc(O)cc3C2=O)cc(OC)c1"
  growth (%): 82.4
- Compound: "COc1cc(OC)c2cc(C(=O)O)c(=O)oc2c1"
  growth (%): 95.3
- Compound: "Cc1c(N(C)CS(=O)(=O)O)c(=O)n(-c2ccccc2)n1C"
  growth (%): 121
- Compound: "O=C(Nc1cccc([N+](=O)[O-])c1)c1cccc(C(=O)Nc2cccc([N+](=O)[O-])c2)c1"
  growth (%): 74
- Compound: "Nc1ncc(-c2cnn(C3CCNCC3)c2)cc1-c1nc2cc(Cl)ccc2o1"
  growth (%): -100
- Compound: "COc1cc(-c2cc(C(=O)Nc3nc4ccccc4s3)nc3cc(-c4ccccc4)nn23)cc(OC)c1OC"
  growth (%): 79.3
- Compound: "O=C1/C(=C/c2ccc3cccc(Cl)c3n2)SC(=S)N1CCc1ccc(O)cc1"
  growth (%): 99.1
